assaySystem: UniProtKB P30530
Sequence (P30530 26-894): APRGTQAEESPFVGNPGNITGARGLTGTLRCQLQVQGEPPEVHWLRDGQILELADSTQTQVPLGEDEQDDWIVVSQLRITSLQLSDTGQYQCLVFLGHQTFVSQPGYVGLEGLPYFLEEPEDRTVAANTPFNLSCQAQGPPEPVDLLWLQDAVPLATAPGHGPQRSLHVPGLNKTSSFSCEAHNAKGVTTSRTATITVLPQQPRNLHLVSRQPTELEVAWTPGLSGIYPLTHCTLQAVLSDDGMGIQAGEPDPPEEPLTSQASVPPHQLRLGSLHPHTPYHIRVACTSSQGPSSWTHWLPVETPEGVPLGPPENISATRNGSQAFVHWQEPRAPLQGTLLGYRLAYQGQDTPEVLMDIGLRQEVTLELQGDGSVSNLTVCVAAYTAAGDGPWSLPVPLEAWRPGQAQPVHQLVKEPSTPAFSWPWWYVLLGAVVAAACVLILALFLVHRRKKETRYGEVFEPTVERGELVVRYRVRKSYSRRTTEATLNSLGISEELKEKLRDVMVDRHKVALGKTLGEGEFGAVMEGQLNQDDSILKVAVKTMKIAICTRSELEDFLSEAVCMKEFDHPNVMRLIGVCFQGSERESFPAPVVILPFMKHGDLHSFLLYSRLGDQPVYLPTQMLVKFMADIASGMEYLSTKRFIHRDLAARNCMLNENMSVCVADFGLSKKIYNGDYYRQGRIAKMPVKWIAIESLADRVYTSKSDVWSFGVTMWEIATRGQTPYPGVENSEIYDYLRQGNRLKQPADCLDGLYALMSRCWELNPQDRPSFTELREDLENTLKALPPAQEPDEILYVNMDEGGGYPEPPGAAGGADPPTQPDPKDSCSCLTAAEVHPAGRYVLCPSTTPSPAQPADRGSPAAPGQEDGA
pIC50: −log10 of the molar value.
experimentalEndpoint: pIC50

Using the record for `COc1cc2c(Oc3ccc(NC(=O)C4(C(=O)Nc5ccc(F)cc5)CC4)cc3F)ccnc2cc1OC(=O)N1CCN(C)C[C@H]1C` , report its pIC50.
> 7.00

Same thing, different compound: `COc1cc2c(Oc3ccc(NC(=O)C4(C(=O)Nc5ccc(F)cc5)CC4)cc3)ccnc2cc1OC(=O)N1[C@H](C)CNC[C@@H]1C`
> 7.00

How about `COc1cc2c(Oc3ccc(NC(=O)C4(C(=O)Nc5ccc(F)cc5)CC4)cc3)ccnc2cc1OC(=O)N1C[C@@H]2C[C@H]1CN2C` ?
> 7.00

What about `COc1cc2nccc(Oc3ccc(NC(=O)C4(C(=O)Nc5ccc(F)cc5)CC4)cc3)c2cc1OC(=O)N1CCN(C)C[C@H]1C` ?
> 7.00
